experiment: NCI Yeast Anticancer Drug Screen. Data for the mlh1 rad18 strain (AID 175); details: S. cerevisiae mlh1 rad18 strain growth inhibition; at 5.0 µM (retest, dose inferred, filed as 0.5); hits give high values
This is part of a sample that, as a whole, favours compounds with a hit. Of some 79,000 tested, about 15% had one in any assay.
measured.parameter: growth inhibition (%)
Quick reminder: number only, in %, skip the unit.

query: // growth inhibition lookup, key: S=C1NC2=C(CSC/C2=C\c2ccccc2)C(c2ccccc2)N1 (configuration not stated)
result: 35

query: Same thing, different compound: "COC(C)(C)[C@@H]1CCCN1C1=C(C)C(=O)OC1"
result: 90

query: Same thing, different compound: "O=C(O)c1ccccc1C1c2ccccc2Oc2ccccc21"
result: 0

query: Same thing, different compound: Cc1ccc(S(=O)(=O)OCC2OC(c3ccccc3)OC3C(CO)OC(c4ccccc4)OC23)cc1 (configuration not stated)
result: 0

query: Same thing, different compound: "O=C1CNC(=O)c2cc(Cl)ccc2N1"
result: 44

query: Same thing, different compound: "COc1cc(C(Sc2ccccc2C(=O)O)Sc2ccccc2C(=O)O)ccc1O"
result: 14

query: Same thing, different compound: "O=C(/C=N/O)c1c(-c2ccccc2)[nH]c(-c2ccccc2)c1-c1ccccc1"
result: 31
